B1: glmS ribozyme (parent)
chain: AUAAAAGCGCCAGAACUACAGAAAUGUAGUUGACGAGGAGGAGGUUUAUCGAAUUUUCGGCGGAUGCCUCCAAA

# Variants of: B1
# METHOD SUMMARY: self-cleavage kobs at 2500 uM GlcN6P; higher = faster cleavage; RNA array
# APPLIED CONDITIONS: with glucosamine-6-phosphate
This sample holds only a part of the variants without activity.
Provide the recorded self-cleavage kobs at 2500 uM GlcN6P for the entries that follow.

The examples below pair each entry with its known result.
So for A33C G44U , the logged self-cleavage kobs at 2500 uM GlcN6P turned out to be < 1e-05 s⁻¹

What the record says about U30G G32A A48G G62C : self-cleavage kobs at 2500 uM GlcN6P is < 1e-05 s⁻¹

Lab book: self-cleavage kobs at 2500 uM GlcN6P of G9U U69C noted as < 1e-05 s⁻¹

Measured self-cleavage kobs at 2500 uM GlcN6P, C10G G41A C58G : < 1e-05 s⁻¹

self-cleavage kobs at 2500 uM GlcN6P for A6C G7A G29A C71U is < 1e-05 s⁻¹

Consider G43A G44C C67A C70A . Its measured self-cleavage kobs at 2500 uM GlcN6P is < 1e-05 s⁻¹

Parameter requested: self-cleavage kobs at 2500 uM GlcN6P. Apply to each item below.
1. G40A U55C C58G
2. C58U G60U
3. G29C U45C G62A
4. G9U G35A
5. G7U U31G C61A C70A
6. G7C G13U G43C G66U

["< 1e-05 s⁻¹", "< 1e-05 s⁻¹", "< 1e-05 s⁻¹", "< 1e-05 s⁻¹", "< 1e-05 s⁻¹", "< 1e-05 s⁻¹"]
